- System Name: USP5 (UniProt P45974)
- Sequence (whole entry): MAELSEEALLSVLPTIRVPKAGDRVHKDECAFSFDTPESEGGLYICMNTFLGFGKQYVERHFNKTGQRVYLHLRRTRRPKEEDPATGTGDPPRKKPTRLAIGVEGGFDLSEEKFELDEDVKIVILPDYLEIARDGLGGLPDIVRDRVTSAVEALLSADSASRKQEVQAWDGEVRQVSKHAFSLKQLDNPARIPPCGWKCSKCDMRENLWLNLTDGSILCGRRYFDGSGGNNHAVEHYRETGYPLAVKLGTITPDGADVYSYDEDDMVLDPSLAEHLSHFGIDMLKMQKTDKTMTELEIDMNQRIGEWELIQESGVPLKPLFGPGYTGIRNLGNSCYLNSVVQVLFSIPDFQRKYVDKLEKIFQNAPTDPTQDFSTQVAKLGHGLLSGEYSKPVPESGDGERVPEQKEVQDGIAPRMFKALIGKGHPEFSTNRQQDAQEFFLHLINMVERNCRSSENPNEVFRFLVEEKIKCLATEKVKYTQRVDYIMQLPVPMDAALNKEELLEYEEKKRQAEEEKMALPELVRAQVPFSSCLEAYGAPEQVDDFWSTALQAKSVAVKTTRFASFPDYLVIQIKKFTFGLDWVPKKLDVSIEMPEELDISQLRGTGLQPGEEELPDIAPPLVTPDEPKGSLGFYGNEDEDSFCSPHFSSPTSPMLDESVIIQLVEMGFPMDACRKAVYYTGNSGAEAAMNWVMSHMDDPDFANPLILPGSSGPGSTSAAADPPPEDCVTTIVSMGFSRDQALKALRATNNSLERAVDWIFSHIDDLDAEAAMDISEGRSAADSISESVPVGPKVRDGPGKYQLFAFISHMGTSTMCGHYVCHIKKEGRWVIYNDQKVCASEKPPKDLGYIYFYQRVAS
- Assay Method Text: log2 ratio of Biotin-Ahx-Ub-VS probe labelling (fragment/DMSO); higher = less target engagement (more negative = stronger competition), active = hit call of the paper (q ≤ 0.05, log2 ratio ≤ -1)
- Measurement Setup: compound concentration: 200 uM; treatment time: 3 h
Class True: log2 ratio of Biotin-Ahx-Ub-VS probe labelling at least -0.05. Class False: log2 ratio of Biotin-Ahx-Ub-VS probe labelling below -0.05.

Molecule | Cat
CN(C)C(=O)c1ccc(NC(=O)CCl)cc1 | True
O=C(CCl)Nc1ccccc1C(F)(F)F | False
CCC1c2ccsc2CCN1C(=O)CCl (centres undefined) | False
NC(=O)C(Cc1ccccc1)NC(=O)CCl (centres undefined) | True
O=C(CCl)NC1CCC2(CC1)OCCO2 | True
Cc1ccc(N(CCC#N)C(=O)CCl)cc1C | True
Cc1c(NC(=O)CCl)c(=O)n(-c2ccccc2)n1C | False
Cc1ncc2c(n1)CCN(C(=O)CCl)C2 | False
O=C(CCl)Nc1cccc2ncccc12 | True
O=C(CCl)N1CCOCC1C1CC1 (centres undefined) | True
Cl.Cn1ncc2c1CCCC2NC(=O)CCl (centres undefined) | False
Cc1cccc(NC(=O)CCl)c1C | False
Cl.O=C(CCl)N1CCn2ncc(O)c2C1 | True
Cl.O=C(CCl)N1CCC(Cc2nccs2)C1 (centres undefined) | True
Cc1cccc(C)c1NC(=O)CCl | False
O=C(CCl)N1CCC(S(=O)(=O)c2ccc(F)cc2)CC1 | True
Cc1nc(CC2CCN(C(=O)CCl)CC2)no1 | False
Cl.O=C(CCl)NCCc1ncc(F)cc1F | False
Cl.O=C(CCl)N1CCc2ncncc2C1 | True
CC(NC(=O)CCl)c1cccc(Cl)c1 (centres undefined) | True
Cc1nnc(C(NC(=O)CCl)c2ccccc2)n1C (centres undefined) | True
COc1ccc(-c2csc(NC(=O)CCl)n2)cc1 | True
O=C(CCl)N1CCOC2(CCC2)CC1 | True
CCC(NC(=O)CCl)c1ccc(Cl)cc1 (centres undefined) | True
O=C(CCl)NC1CCS(=O)(=O)c2ccccc21 (centres undefined) | False
O=C(CCl)NC1CCC(C(F)(F)F)CC1 (centres undefined) | False
Cc1ccc(C)c(NC(=O)CCl)c1 | False
O=C(CCl)Nc1cc(Cl)ccc1C(=O)O | True
